Assay: protein stability index of a GFP-peptide fusion (GPS, HEK-293T) (PSI 1-6); higher = more stable;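 further: 24-mer peptide tiles fused after GFP, lentivirally expressed, FACS-sorted into six equal bins by GFP/DsRed ratio, decoded by Illumina sequencing, PSI is the read-weighted mean bin number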
Conditions: treatment: DMSO; c terminus: a fixed tail appended
Tag: fulfilled if measured protein stability index is not below 3, not fulfilled if it is.

Solved entries (count: 5):
sequence | groupLabel
LPRRPRKGSSELGFPRVAPEDEVI [RNF208] | fulfilled
RRPEDQELESLSAIEAELEKVAHQ [CHGA] | fulfilled
DQWNILQTPILEGRSGPGCAVLDD [KLHL14] | fulfilled
PASFPTWGCDLGVVTRVVTGVYPR [BRF1] | not fulfilled
QNSRNKRAVQGPEETVTQDCLQLI [TNFSF13B] | fulfilled

Is protein stability index at least 3? Consider NFSLATNTKYSVYIYVYFHTKLTS [R3HDM1] not fulfilled

Check this sequence for protein stability index at or above 3: SYDCTVKLWDPVDGSVVRDFEHRP [WDR88] fulfilled

Entry FLGGVVRMTISLTVILIESTNEIT [CLCN6] : is its protein stability index no less than 3? fulfilled

Does ETVPWFPKKISDLDHCANRVLMYG [TPH1] have a reported protein stability index of at least 3? not fulfilled

Determine whether measured protein stability index meets or exceeds 3 for LAWRIVNDTYRTDLCLLYPPFMIA [CCNC] not fulfilled

Could you verify whether the entry YGPQVNNISHTKEKKKGKAKKKRL [WASL] shows protein stability index of no less than 3? fulfilled

hey, is protein stability index for this one >= 3? RSDGKTCAKLDSCALGDHGCEHSC [MATN2] fulfilled

###

Assay: protein stability index of a GFP-peptide fusion (GPS, HEK-293T) (PSI 1-6); higher = more stable
Settings: treatment: MLN4924 1 uM, 8 h; c terminus: a fixed tail appended
Param threshold (3) applies to protein stability index; output 1 when value >= threshold, -1 when value < threshold.

Reference set (3 entries):
sequence | groupLabel
QSPTLEFLLRNSQRTVGQLMELCR [EDARADD] | -1
VSIKEAAGSSNLPAPERTMAGLSK [VENTX] | 1
GFAERRIDKFGFIVGSQGAEGALE [TBC1D10A] | 1

Test whether the sequence LRKIIDFIYTAKLSLNMDNLQDTL [KLHL13] records protein stability index of 3 or higher. -1

protein stability index >= 3 for GLMVTCGTDRIVKIWDMTPVVGCS [WDFY1] ? -1

Given the entry ERLDELQDKSESLSDNATAFSNRS [VAMP4] , answer whether its protein stability index meets or surpasses 3. 1

Identify whether the reported protein stability index of the following sequence is 3 or greater: LCKATSPADALQYLLQFARKPVEA [INTS4] -1

Say whether LGSAPLDQEPLLSIDLGTAHSAAV [NEK8] shows protein stability index of 3 or more. 1

###

Assay: protein stability index of a GFP-peptide fusion (GPS, HEK-293T) (PSI 1-6); higher = more stable
Conditions: treatment: DMSO; c terminus: a fixed tail appended
endpoint: protein stability index

sequence | protein stability index
EKKVLEAGMGKVTSASFGEESTPG [HDAC6] | 5.21

RLPCSFVTLALLGSYTVQSELGDY [EPB41L3] has a reported protein stability index of 2.91

Query KDLNENLAATQGLAHMIAECKKLF [DLC1] yields protein stability index of 2.39

The sequence identified as LHAWEMKPYAVMVFQTEQKNLFRL [N4BP2L1] registered its protein stability index at 2.44

Query YLSPLERKRLAREMQLSEVQIKTW [VENTX] yields protein stability index of 2.5

Given item RFNRIGLPPKVGSFQLFVEGYKDA [PI4K2A] , the value recorded as its protein stability index is 2.39

For record LPDNYEIIDSSLEDITYVLKPTFT [USP39] the listed protein stability index is 2.87

Field protein stability index (entry VACFLTRGDLWISWEEGMKVFEEL [CRY1] ) reads 2.67

What the record says about STGYCWCVLVDTGRPIPGTSTRYE [SMOC2] : protein stability index is 2.64

Summary for this sequence, RKMSLLKFLAKVNGSDPRSFPLWY [MAGEA10] : protein stability index is 2.38

Documented protein stability index of EEELNFEKGETMEVIEKPENDPEW [NCK2] : 5.53

The reported value for QQAMSLAILRVIRLVRVFRIFKLS [KCNA3] in terms of protein stability index is 2.69

Quick note, protein stability index for DGLPLHFFIQTVRPKDTVMCYRVR [MYORG] landed at 2.15

Lab book: protein stability index of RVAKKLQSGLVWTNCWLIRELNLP [ALDH8A1] noted as 2.5

Recorded result, FHLSLFQGWMNLLNMAKKSVDIVS [PLD5] , protein stability index: 2.99

Form: sequence = FPLKPMVHRKSCSTGEAGTDGDHN [ZC2HC1C] ; protein stability index = 4.53

###

Assay: protein stability index of a GFP-peptide fusion (GPS, HEK-293T) (PSI 1-6); higher = more stable
Settings: treatment: MLN4924 1 uM, 8 h; c terminus: a fixed tail appended
protein stability index of 3 or higher: true. Under 3: false.

// below: answered sequences
sequence | groupLabel
DNLGYRTGYPYRYPALREKSKKYS [ADD1] | true
PSTTERISTSGQAGTSSHGCWAWP [PXN] | true
ENYNNLANAVISVSGINHDVTSGD [CPN1] | true
LFSNSDHQRDGTLGALHTSSKPTA [SASS6] | true
IAILLYKSKPDRKRAESDSRKSSI [PTPRD] | false

Moving on to the next sequence.
// inclusive: protein stability index at least 3? input: VKLLVDLELSYGFENGQKAAVVHH [TOR1AIP2] false

###

Experiment: protein stability index of a GFP-peptide fusion (GPS, HEK-293T) (PSI 1-6); higher = more stable
Conditions: treatment: DMSO; c terminus: a fixed tail appended
// 0 (no) strictly below 4 in protein stability index; 1 (yes) otherwise

sequence | groupLabel
VLMDTQGAFDSQSTVKDCATIFAL [ATL3] | 0 (no)
LAQFPNTLLGNPKKRMRYFDPLRN [KCNA1] | 0 (no)
GRRQRKSEKRRDPPNGPNLPMATV [WASL] | 1 (yes)
CSQLLESSYFDSFQEAQIKRKARN [CDKL4] | 0 (no)
CTSSWDKNLKIWNVHTGEFRNCGA [WDR88] | 0 (no)
RQDADAWTLYKILDSCKQLTLAQG [SMG5] | 0 (no)
PRCPRMVLSLKEGAREEDLDAVEA [FBXO3] | 1 (yes)
DALEDSLEEVAVQQTGDDDEVDDF [PBXIP1] | 1 (yes)
LGNFKDDLLNVCMRHVEKMCKADL [TRIM29] | 0 (no)
CEEVKMTVASEAKIQLSDSEAKSH [FAN1] | 1 (yes)

Now look at this entry.
API: above_or_equal(metric=protein stability index, cutoff=4) for item MNSLLIGELSPEQPSFEPTKNKEL [FADS1] 1 (yes)

###

Test: protein stability index of a GFP-peptide fusion (GPS, HEK-293T) (PSI 1-6); higher = more stable
Conditions: treatment: DMSO; c terminus: a fixed tail appended
Param threshold (3) applies to protein stability index; output fulfilled when value >= threshold, not fulfilled when value < threshold.

sequence | groupLabel
FQEYDTDCEVFRQRFRQFQYREAA [ZNF449] | not fulfilled
STVGSAISRKLGDMRNSATFKSFE [TPD52L2] | fulfilled
GGPQRIPAHRFVLAAGSAVFDAMF [BTBD1] | not fulfilled
TKMWHPNIYENGDVCISILHPPVD [UBE2R2] | not fulfilled
ISSIEAQLSELRSEMECQNQEYKM [KRT13] | fulfilled
IDYGANVNQPNNNGFTPLHFAAAS [ANKRD44] | fulfilled

Please find the next sequence below.
Has GPPPGAPHTPQTPGQGGPASTPAQ [NR2F2] a recorded protein stability index greater than or equal to 3? fulfilled

###

Measured protein stability index values are reported for all entries that follow.
Test: protein stability index of a GFP-peptide fusion (GPS, HEK-293T) (PSI 1-6); higher = more stable
Conditions: treatment: DMSO; c terminus: a fixed tail appended
Just the number, please, no unit after it.

sequence | protein stability index
KPTEPSVPVQPLLPESLARSLLPS [FBF1] | 4.33

Kindly note the recorded protein stability index for LEKVECTPSQEHLKHQTVYRLLKC [FEM1A] , which is 2.85

The sequence listed as KYKRRRFQKTKNLLTGETEADPEM [CLPTM1] shows protein stability index equal to 4.83

DVLRGNDETIGFEDILNDPSQSEV [POMP] has a reported protein stability index of 5.13

Item: SLQLVFGIELMEVDPIGHVYIFAT [MAGEA6] | protein stability index: 2.73

Just so you know, measured protein stability index for SEEYRAPRPQSEESWDEEDKRNYP [CHGB] came out at 5.47

Given item MGLVETKLAIIPGGGGTQRLPRAI [AUH] , the value recorded as its protein stability index is 2.99
